// provenance: the Human Domainome abundance scans (Beltran et al. 2025)

B1: Formin-binding protein 4, residues 200 to 261; numbered along this chain, Q8N3X1 (parent)
chain: SGWQYDTQCSLAGVGIEMGDWQEVWDENTGCYYYWNTQTNEVTWELPQYLATQVQGLQHYQP

# Variants of: B1
# EXPERIMENT_SUMMARY: abundance fitness (aPCA) (normalised: wild type 0, dead -1); higher = more abundant; growth selection in yeast, the domain comes from the species named
# CONDITIONS_USED: Homo sapiens
Let's look at some variants and their measured abundance fitness.
// no unit string in output, number only

>  <MUTANT_CODE>
C31K

>  <abundance fitness>
0.066

$$$$

Need abundance fitness, item T29S
0.123

What value of measured abundance fitness is listed for N36M ?
-0.603

I'd like to know its abundance fitness. The variant in question is G2F
0.071

Fill in the blank: the reported abundance fitness of Q53W is ____.
-0.634

Please give the measured abundance fitness for this variant: T43E
-0.053

Find the recorded abundance fitness belonging to N28V and report it.
-0.507

Requested field: abundance fitness. Item: A12N
-0.331

Given the entry Q4D , report its measured abundance fitness.
0.182

Recorded abundance fitness of Q4R , please.
0.106

Given the entry V14L , report its measured abundance fitness.
-0.071

Can you share its abundance fitness? I mean this variant: T37A
0.061

Entry under review: H59K . Reported abundance fitness?
0.188
